target: Muscarinic acetylcholine receptor M3 (Homo sapiens) (UniProt P20309)
Sequence (P20309 whole entry, looked up): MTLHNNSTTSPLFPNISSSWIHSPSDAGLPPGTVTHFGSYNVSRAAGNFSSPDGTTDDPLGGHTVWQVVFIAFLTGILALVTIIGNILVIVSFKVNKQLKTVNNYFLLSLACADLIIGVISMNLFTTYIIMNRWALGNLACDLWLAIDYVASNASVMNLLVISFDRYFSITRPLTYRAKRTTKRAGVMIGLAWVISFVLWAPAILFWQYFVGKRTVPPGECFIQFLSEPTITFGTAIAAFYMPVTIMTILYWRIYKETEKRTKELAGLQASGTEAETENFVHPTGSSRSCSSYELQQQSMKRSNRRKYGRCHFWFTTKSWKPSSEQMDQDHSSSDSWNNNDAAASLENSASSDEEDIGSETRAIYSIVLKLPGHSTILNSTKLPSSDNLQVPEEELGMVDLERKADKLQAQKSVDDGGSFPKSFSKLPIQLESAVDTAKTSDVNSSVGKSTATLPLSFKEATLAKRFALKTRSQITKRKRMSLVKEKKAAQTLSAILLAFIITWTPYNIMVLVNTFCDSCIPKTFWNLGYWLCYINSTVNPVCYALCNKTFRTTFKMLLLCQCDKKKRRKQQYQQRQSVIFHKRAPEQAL
test_name: Agonist activity at M3 receptor (unknown origin) at 3 uM by calcium mobilization assay
Type: functional
Parameter: Activity. Scope: all listed entries.
Answer format: numeric, % implied, no suffix.

Examples from the recorded data:
CCOC(=O)N1CCC(CN2CC[C@H](N3C(=O)Cc4ccccc43)C2)CC1 : 7
CCCCCCOc1nsnc1C1=CCCN(C)C1.O=C(O)C(O)C(O)C(=O)O [XANOMELINE TARTRATE] : 85
CCOC(=O)N1CCC(CN2CCCC(N3C(=O)Cc4ccccc43)CC2)CC1 (stereo unspecified) : 2
CCOC(=O)N1CCC(CN2CC(N3C(=O)Cc4ccccc43)C2)CC1 : 3
CCOC(=O)N1CCC(CN2CC[C@@H](N3C(=O)Cc4ccccc43)C2)CC1 : 8

Now, please, on to the next molecule.
Lookup result for CCOC(=O)N1CCC(CN2CCC(N3C(=O)Cc4ccccc43)CC2)CC1 ; measured Activity: 2
